Values were extracted from ChEMBL document CHEMBL2074244.

subject_of_test: MRP6 (ABCC6) (Homo sapiens)
test_details: TP_TRANSPORTER: inhibition of NEM-GS in the presence of Benzbromarone at a concentration of 30uM in membrane vesicles from MRP6-expressing Sf9 cells
Format: functional, cell membranes, Membrane vesicle
Design: scale not given: the % may be the effect or the level left
recorded_conditions: probe NEM-GS, read-out: Activity
recorded_metric: activity at 30 µM (%)

1) CCc1oc2ccccc2c1C(=O)c1cc(Br)c(O)c(Br)c1 ... 0

---

subject_of_test: MRP6 (ABCC6) (Homo sapiens, UniProt O95255)
Sequence (O95255 whole entry): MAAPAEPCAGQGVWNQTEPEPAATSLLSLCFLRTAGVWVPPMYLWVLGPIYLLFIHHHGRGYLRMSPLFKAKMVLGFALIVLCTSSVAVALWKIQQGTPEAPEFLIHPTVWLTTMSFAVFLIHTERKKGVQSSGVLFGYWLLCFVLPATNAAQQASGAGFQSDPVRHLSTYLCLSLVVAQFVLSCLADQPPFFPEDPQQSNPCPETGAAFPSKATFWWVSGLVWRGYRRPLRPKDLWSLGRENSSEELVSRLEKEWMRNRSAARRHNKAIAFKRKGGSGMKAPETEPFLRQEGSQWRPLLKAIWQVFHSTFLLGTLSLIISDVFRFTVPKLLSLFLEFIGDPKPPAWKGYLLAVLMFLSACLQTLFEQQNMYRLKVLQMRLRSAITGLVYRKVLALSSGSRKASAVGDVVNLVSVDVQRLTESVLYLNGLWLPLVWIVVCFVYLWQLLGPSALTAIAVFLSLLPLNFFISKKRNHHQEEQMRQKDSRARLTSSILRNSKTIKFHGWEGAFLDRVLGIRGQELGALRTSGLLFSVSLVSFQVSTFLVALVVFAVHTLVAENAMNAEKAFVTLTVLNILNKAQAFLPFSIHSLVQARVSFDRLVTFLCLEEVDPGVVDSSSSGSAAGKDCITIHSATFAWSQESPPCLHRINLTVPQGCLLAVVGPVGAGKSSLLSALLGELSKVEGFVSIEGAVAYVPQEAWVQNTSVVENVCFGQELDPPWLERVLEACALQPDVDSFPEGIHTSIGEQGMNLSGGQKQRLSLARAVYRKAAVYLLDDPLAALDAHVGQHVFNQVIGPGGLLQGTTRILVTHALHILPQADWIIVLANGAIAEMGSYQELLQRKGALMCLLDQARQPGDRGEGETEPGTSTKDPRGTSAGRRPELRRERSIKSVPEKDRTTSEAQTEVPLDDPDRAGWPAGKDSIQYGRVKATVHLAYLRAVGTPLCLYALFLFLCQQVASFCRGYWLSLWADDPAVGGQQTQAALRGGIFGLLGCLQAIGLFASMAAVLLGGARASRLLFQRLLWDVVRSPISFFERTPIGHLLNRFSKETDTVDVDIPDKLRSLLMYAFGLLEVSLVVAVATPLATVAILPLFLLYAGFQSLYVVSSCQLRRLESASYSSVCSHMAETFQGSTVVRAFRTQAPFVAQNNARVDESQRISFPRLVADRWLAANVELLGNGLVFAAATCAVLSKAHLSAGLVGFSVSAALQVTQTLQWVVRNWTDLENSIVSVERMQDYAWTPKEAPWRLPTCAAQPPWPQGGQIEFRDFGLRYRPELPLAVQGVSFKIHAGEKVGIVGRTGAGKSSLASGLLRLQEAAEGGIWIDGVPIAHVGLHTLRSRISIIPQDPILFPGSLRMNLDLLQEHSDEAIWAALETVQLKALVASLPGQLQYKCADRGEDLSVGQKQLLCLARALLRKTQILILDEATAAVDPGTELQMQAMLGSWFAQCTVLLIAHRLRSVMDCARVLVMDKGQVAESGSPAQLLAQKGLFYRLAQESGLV
test_details: TP_TRANSPORTER: inhibition of NEM-GS in the presence of Indomethacin at a concentration of 100uM in membrane vesicles from MRP6-expressing Sf9 cells
Assay type: functional, cell membranes, Membrane vesicle
Parameters: scale not given: the % may be the effect or the level left
recorded_conditions: probe NEM-GS, read-out: Activity
recorded_metric: activity at 100 µM (%)

1. COc1ccc2c(c1)c(CC(=O)O)c(C)n2C(=O)c1ccc(Cl)cc1 [INDOMETHACIN] ... 80
